Assay: Ocular pharmacokinetics of Comp-02 after intravitreal injection in rabbit
Assay type: in vivo, pigmented HY79b rabbits
Conditions: male, pigmented HY79b, other: intravitreal injection, 50 μl of 1 mg/mL in both eyes, plasma, intravitreal, read-out: AUC1-48 hours
Description: Study design: To gain insight into the distribution behaviour of synthetic 17,18-EEQ-agonists, ocular pharmacokinetic studies were performed in pigmented HY79b rabbits. […] Content of Comp-02 was determined in ocular samples and plasma following an established RRLCMS/MS method. The results are presented in Tables 5-7 and are expressed as mean values for the different pharmacokinetic parameters. […] Apparent Cmax and Tmax, T½, AUC1-48 h were calculated by Excel® software. […]
outcomeMeasure: AUC (ng·h/mL)
All answers are understood in ng·h/mL, so give the number only.

Lookup: Consider the molecule shown here: CNC(=O)C(=O)NCCCC/C=C\CCCCCCCOCC(=O)O What is its recorded AUC?
Found: 287

----------
Experiment: Ocular pharmacokinetics of Comp-02 after topical administration (instillation) in rabbit
Type: in vivo, pigmented HY79b rabbits
Details: male, pigmented HY79b, topical or ocular, 50 μl of 1 mg/mL in both eyes, retina, topical
outcomeMeasure: Tmax (h)
All answers are understood in h, so give the number only.

Lookup: Consider the molecule shown here: CNC(=O)C(=O)NCCCC/C=C\CCCCCCCOCC(=O)O What is its recorded Tmax?
Found: 1

----------
Assay: Ocular pharmacokinetics of Comp-02 after topical administration (instillation) in rabbit
Format: in vivo, pigmented HY79b rabbits
Conditions: male, pigmented HY79b, topical or ocular, 50 μl of 1 mg/mL in both eyes, plasma, topical, read-out: AUC1-48 hours
outcomeMeasure: AUC (ng·h/mL)
All answers are understood in ng·h/mL, so give the number only.

Lookup: Consider the compound shown here: CNC(=O)C(=O)NCCCC/C=C\CCCCCCCOCC(=O)O What is its recorded AUC?
Found: 262

----------
Assay: Ocular pharmacokinetics of Comp-02 after oral administration in rabbit
Type: in vivo, pigmented HY79b rabbits
Settings: male, pigmented HY79b; aqueous humor; single oral 2 mg/kg; rabbit
outcomeMeasure: Tmax
The answer consists of two parts: a number and, after it, its unit.

Lookup: Consider the compound shown here: CNC(=O)C(=O)NCCCC/C=C\CCCCCCCOCC(=O)O What is its recorded Tmax?
Found: 1 h

----------
Experiment: Ocular pharmacokinetics of Comp-02 after topical administration (instillation) in rabbit
Type: in vivo, pigmented HY79b rabbits
Settings: male, pigmented HY79b, topical or ocular, 50 μl of 1 mg/mL in both eyes, aqueous humor, single instillation 50 μl (1 mg/mL) in both eyes
outcomeMeasure: Cmax (µg/mL)
All answers are understood in µg/mL, so give the number only.

Lookup: Consider the compound shown here: CNC(=O)C(=O)NCCCC/C=C\CCCCCCCOCC(=O)O What is its recorded Cmax?
Found: 0.088

----------
Test: Ocular pharmacokinetics of Comp-02 after topical administration (instillation) in rabbit
Assay type: in vivo, pigmented HY79b rabbits
Details: male, pigmented HY79b, topical or ocular, 50 μl of 1 mg/mL in both eyes, choroid, topical, calculated from the Tmax value
outcomeMeasure: half-life

Lookup: Consider the compound shown here: CNC(=O)C(=O)NCCCC/C=C\CCCCCCCOCC(=O)O What is its recorded half-life?
Found: 42 min

----------
Assay: Ocular pharmacokinetics of Comp-02 after intravitreal injection in rabbit
Format: in vivo, pigmented HY79b rabbits
Conditions: male, pigmented HY79b, topical or ocular, 50 μl of 1 mg/mL in both eyes, choroid, single vitreal injection of 50 μl (1 mg/mL) in both eyes
Method: Study design: To gain insight into the distribution behaviour of synthetic 17,18-EEQ-agonists, ocular pharmacokinetic studies were performed in pigmented HY79b rabbits. […] Content of Comp-02 was determined in ocular samples and plasma following an established RRLCMS/MS method. The results are presented in Tables 5-7 and are expressed as mean values for the different pharmacokinetic parameters. […] Apparent Cmax and Tmax, T½, AUC1-48 h were calculated by Excel® software. […]
outcomeMeasure: Cmax

Lookup: Consider the compound shown here: CNC(=O)C(=O)NCCCC/C=C\CCCCCCCOCC(=O)O What is its recorded Cmax?
Found: 15000 ng/g
